target: HLA-B*15:42; assay: IEDB peptide-MHC binding, purified MHC/competitive/fluorescence; filed as Kd, often an IC50 or EC50 that approximates it; bounds were set here for any values at or beyond the usual limits of such assays; conditions: source organism: Staphylococcus aureus subsp. aureus N315
pKd: −log10 of the molar value.
Measure Name: pKd

Look up pKd for this sequence: YTIGIGAFY
≤ 5.30

---

biological target: HLA-B*83:01; assay: IEDB peptide-MHC binding, purified MHC/competitive/fluorescence; filed as Kd, often an IC50 or EC50 that approximates it; bounds were set here for any values at or beyond the usual limits of such assays; conditions: source organism: Crocodilepox virus
pKd: −log10 of the molar value.
Measure Name: pKd

API: value(readout= pKd, system= HLA-B*83:01, query= RVRSMANVY )
≤ 5.30

---

biological target: HLA-B*15:01; assay: IEDB peptide-MHC binding, purified MHC/competitive/radioactivity; filed as Kd, often an IC50 or EC50 that approximates it; bounds were set here for any values at or beyond the usual limits of such assays; conditions: source organism: Dengue virus 1 Brazil/97-11/1997
Listing of recorded Kd by entry.
Answer in nM, number only, no unit symbol.

Examples from the recorded data:
- Sequence Input: "QQVPFCSHHF"
  Kd, nM: 13.9
- Sequence Input: "MLVTPSMAM"
  Kd, nM: 3.06

API: value(readout= Kd, system= HLA-B*15:01, query= SNAAIGAVF )
77.8

---

target: HLA-A*32:01; test: IEDB peptide-MHC binding, purified MHC/competitive/radioactivity; filed as Kd, often an IC50 or EC50 that approximates it; bounds were set here for any values at or beyond the usual limits of such assays; conditions: source organism: Lymphocytic choriomeningitis virus (strain Armstrong)
Measure Name: Kd

Look up Kd for this sequence: FSKSRSTLMY
≥ 69.9 µM

---

biological target: HLA-B*44:02; assay: IEDB peptide-MHC binding, purified MHC/direct/fluorescence; filed as Kd, often an IC50 or EC50 that approximates it; bounds were set here for any values at or beyond the usual limits of such assays; conditions: source organism: Brucella abortus
Measure Name: Kd

Look up Kd for this sequence: GYSFSIPGY
≥ 20 µM

---

biological target: HLA-A*33:01; test: IEDB peptide-MHC binding, purified MHC/competitive/radioactivity; filed as Kd, often an IC50 or EC50 that approximates it; bounds were set here for any values at or beyond the usual limits of such assays; details: source organism: Variola virus
Measure Name: Kd

Look up Kd for this sequence: VTSSGVIYK
≥ 70 µM

---

target: HLA-B*07:02; assay: IEDB peptide-MHC binding, purified MHC/competitive/fluorescence; filed as Kd, often an IC50 or EC50 that approximates it; bounds were set here for any values at or beyond the usual limits of such assays; conditions: source organism: Pseudomonas sp. MIS38
Measure Name: Kd

API: value(readout= Kd, system= HLA-B*07:02, query= YMLKDSAPT )
≥ 20 µM

---

biological target: HLA-B*18:01; test: IEDB peptide-MHC binding, purified MHC/competitive/fluorescence; filed as Kd, often an IC50 or EC50 that approximates it; bounds were set here for any values at or beyond the usual limits of such assays; conditions: source organism: Pan troglodytes
Measure Name: Kd

Look up Kd for this sequence: FLFDRLTNG
≥ 20 µM

Data credit: the Immune Epitope Database (IEDB)
